Target system: recombinant human GSTP1 (Homo sapiens, UniProt P09211)
Construct: made in house; host or cells: E. coli XL-1 Blue
Sequence (P09211 whole entry): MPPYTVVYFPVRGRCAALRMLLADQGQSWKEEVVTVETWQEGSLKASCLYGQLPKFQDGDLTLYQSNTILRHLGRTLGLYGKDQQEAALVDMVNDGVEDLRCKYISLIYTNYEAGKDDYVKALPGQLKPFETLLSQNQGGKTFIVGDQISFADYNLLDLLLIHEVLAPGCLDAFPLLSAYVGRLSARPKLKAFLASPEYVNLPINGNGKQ
Assay info: GSTP1 enzyme inhibition assay (GSH-CDNB conjugation, spectrophotometric)
Format: biochemical
Condition notes: 0.1 M phosphate buffer pH 6.5, 30 °C, 1 mM EDTA, 1 mM GSH, 1 mM CDNB, 2.5% DMSO
Measurement label: pIC50
FYI, pIC50 means -log10 of a concentration in mol per litre.

Q) Using the record for "Nc1nc2c(ncn2[C@H]2C[C@H](O)[C@@H](CO)O2)c(=S)[nH]1" , report its pIC50.
A) 4.82

---

Target system: GSTP1-1 (Homo sapiens)
Construct: made in house; host or cells: E. coli XL-1 Blue
Sequence (P09211 whole entry): as above
Assay info: Kinetic inhibition studies with GSTP1 (Lineweaver-Burk, varied GSH or CDNB)
Assay type: biochemical
Condition notes: CDNB as varied substrate, GSH near-saturating; read-out: Ki CDNB
molecules and their reported Ki
State just the number; it will be interpreted in µM.

Q) Entry "Nc1nc2c(ncn2[C@H]2C[C@H](O)[C@@H](CO)O2)c(=S)[nH]1" : reported Ki = ?
A) 11.4

Q) Entry under review: Nc1nc(SSc2nc(N)nc3c2ncn3C2CC(O)C(CO)O2)c2ncn(C3CC(O)C(CO)O3)c2n1 (centres unmarked) . Reported Ki?
A) 0.723
